Cited source: patent US10912786B2

Please provide measured IC50 for the entries that follow.
molecular target: recombinant human tryptase, beta, from lung (Homo sapiens); assay: Evaluation of inhibition of tryptase activity (Boc-Gln-Ala-Arg-AMC fluorescence); conditions: exemplary silyl monomers; 1 nM tryptase; read-out: IC50 range
Sequence (P20231 31-275): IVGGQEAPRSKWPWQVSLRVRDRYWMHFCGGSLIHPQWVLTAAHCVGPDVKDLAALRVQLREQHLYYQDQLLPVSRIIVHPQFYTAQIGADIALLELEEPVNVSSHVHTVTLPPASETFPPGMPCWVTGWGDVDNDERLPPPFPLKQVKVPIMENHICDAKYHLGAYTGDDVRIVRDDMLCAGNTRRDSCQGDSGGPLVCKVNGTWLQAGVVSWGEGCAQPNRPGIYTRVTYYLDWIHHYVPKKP

# count of solved cases: 2
molecule: C[Si](C)(O)COc1ccc(C(=O)N2CCC(c3cccc(CN)c3)CC2)cc1 [Target T137]
studySystem: recombinant human tryptase, beta, from lung (Homo sapiens)
IC50: 0.1 to 1000 nM
--
molecule: C[Si](C)(O)c1ccc2cccc(C(=O)N3CCC(c4cccc(CN)c4)CC3)c2c1 [Target T11SILYL]
studySystem: recombinant human tryptase, beta, from lung (Homo sapiens)
IC50: 0.1 to 1000 nM

// moving on: another record for IC50
Give the reported IC50 for C[Si](C)(/C=C/c1cccc(CC(=O)N2CCC(c3cccc(CN)c3)CC2)c1)O[Si](C)(C)/C=C/c1cccc(CC(=O)N2CCC(c3cccc(CN)c3)CC2)c1 [Target T47vinyl] (system: recombinant human tryptase, beta, from lung (Homo sapiens)). 1000 to 10000 nM
